Listed here: items and their measured Remaining (%, 60 min).
# assayName: Metabolic stability in liver microsome (mouse)
# Type: in vitro ADME
# measurementContext: mouse liver microsome 0.5 mg/mL, compound 1 μM, 60 min

smilesRepresentation	Remaining (%, 60 min)
CCc1cc2n(CC(=O)Nc3ccc(F)cn3)c(=O)c3ccc(C(F)(F)F)nc3n2n1	81.3%
N#Cc1cc2n(CC(=O)Nc3ccc(F)cn3)c(=O)c3ccc(C(F)(F)F)nc3n2n1	91.6%
O=C(Cn1c(=O)c2ccc(C(F)(F)F)nc2n2nccc12)Nc1ccc(F)cn1	99.3%
O=C(Cn1c(=O)c2ccc(C(F)(F)F)nc2n2nc(Br)cc12)Nc1ccc(F)cn1	92.5%
